Biological target: UniProtKB P27487
Sequence (P27487 whole entry): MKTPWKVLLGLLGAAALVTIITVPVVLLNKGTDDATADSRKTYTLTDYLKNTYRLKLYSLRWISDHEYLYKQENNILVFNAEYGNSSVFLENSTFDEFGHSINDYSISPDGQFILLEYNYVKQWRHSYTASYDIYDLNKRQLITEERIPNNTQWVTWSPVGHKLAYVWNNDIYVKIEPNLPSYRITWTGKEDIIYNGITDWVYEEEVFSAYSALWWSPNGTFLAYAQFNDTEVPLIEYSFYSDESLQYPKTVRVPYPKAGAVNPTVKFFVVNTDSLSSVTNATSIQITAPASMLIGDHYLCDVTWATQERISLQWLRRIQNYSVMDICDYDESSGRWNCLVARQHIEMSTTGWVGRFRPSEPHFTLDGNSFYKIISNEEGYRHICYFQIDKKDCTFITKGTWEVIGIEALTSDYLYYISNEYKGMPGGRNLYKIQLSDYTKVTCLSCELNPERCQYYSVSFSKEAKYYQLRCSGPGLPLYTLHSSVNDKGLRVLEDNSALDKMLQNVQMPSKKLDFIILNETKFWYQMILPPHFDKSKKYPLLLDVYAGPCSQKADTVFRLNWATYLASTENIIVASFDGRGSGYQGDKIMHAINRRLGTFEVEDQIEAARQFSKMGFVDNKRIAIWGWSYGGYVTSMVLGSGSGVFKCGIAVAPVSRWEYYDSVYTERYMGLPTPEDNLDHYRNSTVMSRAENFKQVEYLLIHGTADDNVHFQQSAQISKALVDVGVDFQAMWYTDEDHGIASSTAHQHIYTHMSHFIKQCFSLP
Experiment: Inhibition of DDP4 at pH 2 preincubated for 10 mins
For each record, write down the corresponding pIC50.
Keep it numeric: pIC50 is minus log10 of the concentration in mol/L.

Form field: pIC50 recorded for C[C@H](NC(=O)[C@@H]1CCCN1C(=O)[C@@H](N)Cc1ccccc1)C(=O)N1CCC[C@H]1B(O)O with UniProtKB P27487 (enter value)
8.08

Form field: pIC50 recorded for CC(C)[C@H](NC(=O)[C@@H]1CCCN1C(=O)[C@@H](N)C1CCCCC1)C(=O)N1CCC[C@H]1B(O)O with UniProtKB P27487 (enter value)
7.70
